ASSAY TARGET: T1, Cy5-labeled karyopherin β1 (KPNB1) (UniProt Q14974 1-876, Cy5 label (site not stated))
T1 construct: Karyopherin β1 (KPNB1, importin β1); also called importin β1; Cy5-KPNB1
T1 sequence (Q14974 whole entry): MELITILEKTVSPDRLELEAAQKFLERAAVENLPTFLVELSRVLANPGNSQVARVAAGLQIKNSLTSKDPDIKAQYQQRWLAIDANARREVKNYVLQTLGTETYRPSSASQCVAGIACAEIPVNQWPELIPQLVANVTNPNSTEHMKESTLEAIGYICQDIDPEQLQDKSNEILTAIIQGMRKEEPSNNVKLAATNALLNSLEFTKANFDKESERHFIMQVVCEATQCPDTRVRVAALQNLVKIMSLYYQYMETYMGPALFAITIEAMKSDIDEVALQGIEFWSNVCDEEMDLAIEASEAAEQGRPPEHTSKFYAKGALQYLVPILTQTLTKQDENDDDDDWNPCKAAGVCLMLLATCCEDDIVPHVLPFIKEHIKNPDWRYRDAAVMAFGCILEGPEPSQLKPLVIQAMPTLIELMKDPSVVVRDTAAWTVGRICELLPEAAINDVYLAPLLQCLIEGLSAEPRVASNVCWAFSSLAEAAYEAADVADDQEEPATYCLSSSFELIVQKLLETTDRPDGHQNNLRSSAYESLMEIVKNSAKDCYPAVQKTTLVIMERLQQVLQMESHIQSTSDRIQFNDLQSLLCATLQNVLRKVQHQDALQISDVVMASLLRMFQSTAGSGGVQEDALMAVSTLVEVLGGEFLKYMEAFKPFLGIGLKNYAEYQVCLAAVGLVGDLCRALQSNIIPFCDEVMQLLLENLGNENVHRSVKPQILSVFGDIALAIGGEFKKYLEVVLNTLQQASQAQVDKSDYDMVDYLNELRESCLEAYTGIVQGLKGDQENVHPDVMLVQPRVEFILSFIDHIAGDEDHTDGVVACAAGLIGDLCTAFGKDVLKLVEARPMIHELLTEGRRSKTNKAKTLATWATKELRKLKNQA
EXPERIMENT DESCRIPTION: single-molecule pull-down (TIRF microscopy); GST-NUPR1 (100 nM) immobilised on PEG-coated quartz via neutravidin and biotin-conjugated GST-tag antibody; 5 nM Cy5-labeled KPNB1 in imaging buffer (4 mM Trolox, 0.2% glucose, 50 mM NaCl, pyranose oxidase, catalase); spots counted up to 1 h, then unbound KPNB1 washed out for dissociation; exponential fits
TEST CONTEXT: both partners purified
pKd: −log10 of the molar value.
PROPERTY: pKd

// query pKd value for entry GST-NUPR1 (nuclear protein-1) recombinant protein (natural protein, UniProt O60356 1-82, looked up, Nuclear protein-1 (NUPR1, p8/Com-1); Held on the PEG-coated quartz surface through neutravidin and a biotin-conjugated GST-tag antibody; No catalogue number is printed; also called p8; Com-1; source: bought: NOVUS Biologicals (recombinant protein)) MATFPPATSAPQQPPGPEDEDSSLDESDLYSLAHSYLGGGGRKGRTKREAAANTNRPSPGGHERKLVTKLQNSERKKRGARR
~9.19
